Recorded values, source patent US11851449B2.

Below, each entry is listed with its recorded inhibition at 3 µM.
# TARGET OR SYSTEM: RORγt (Homo sapiens)
# PROTOCOL NOTES: Jurkat reporter test (human IL-17 ROR response element luciferase reporter)
# Type: cell-based
# CONDITIONS USED: Jurkat, read-out: luminescence level inhibitory rate (%) at test compound 3 μM
QUANTITY: inhibition at 3 µM (%)

COMPOUND	TARGET OR SYSTEM	UNIT OF MEASUREMENT	READING
COc1ccc([C@@H](NC(=O)c2cc(O)no2)C(=O)Nc2ccc([Si](C)(C)C)c(F)c2)cc1	RORγt (Homo sapiens)	%	63.2
COCc1ccc(C(NC(=O)N2CCC(O)C2)C(=O)Nc2ccc([Si](C)(C)C)c(F)c2)cc1 (stereo not drawn)	RORγt (Homo sapiens)	%	98.4
COCc1ccc([C@@H](NC(=O)N2CC[C@H](F)C2)C(=O)Nc2ccc([Si](C)(C)C)c(F)c2)cc1	RORγt (Homo sapiens)	%	99.5
Cn1ncc2cc([C@@H](NC(=O)[C@@H]3CNC(=O)C3)C(=O)Nc3ccc([Si](C)(C)C)c(F)c3)ccc21	RORγt (Homo sapiens)	%	100
COCc1ccc([C@@H](NC(=O)c2cc(O)no2)C(=O)Nc2cc(F)c([Si](C)(C)C)c(F)c2)cc1	RORγt (Homo sapiens)	%	97
COc1ccc(C(C(=O)Nc2cc(F)c([Si](C)(C)C)cc2F)N(C)C(=O)c2cc(O)no2)cc1 (stereo not drawn)	RORγt (Homo sapiens)	%	98.3
COCc1ccc([C@@H](NC(=O)Cn2ccc(=O)[nH]c2=O)C(=O)Nc2ccc([Si](C)(C)C)c(F)c2)cc1	RORγt (Homo sapiens)	%	99.2
COCc1ccc([C@@H](NC(=O)C2CCOCC2)C(=O)Nc2ccc([Si](C)(C)C)c(F)c2)cc1	RORγt (Homo sapiens)	%	98.1
COCc1ccc([C@@H](NC(=O)Cn2cnccc2=O)C(=O)Nc2ccc([Si](C)(C)C)c(F)c2)cc1	RORγt (Homo sapiens)	%	98.4
COCc1ccc(C(C(=O)Nc2cc(F)c([Si](C)(C)C)cc2F)N(C)C(=O)c2cc(O)no2)cc1 (stereo not drawn)	RORγt (Homo sapiens)	%	100
COc1ccc(C(NC(=O)N2CC(O)C2)C(=O)Nc2cc(F)c([Si](C)(C)C)c(F)c2)cc1 (stereo not drawn)	RORγt (Homo sapiens)	%	100
COc1ccc(C(NC(=O)Cc2ccn(C)n2)C(=O)Nc2ccc([Si](C)(C)C)cc2)cc1 (stereo not drawn)	RORγt (Homo sapiens)	%	84.7
COc1ccc([C@@H](NC(=O)c2cc(O)no2)C(=O)Nc2cc(F)c([Si](C)(C)C)c(F)c2)cc1	RORγt (Homo sapiens)	%	99.9
COCc1ccc(C(NC(=O)C2CNC(=O)C2)C(=O)Nc2ccc([Si](C)(C)C)c(C#N)c2)cc1 (stereo not drawn)	RORγt (Homo sapiens)	%	97.6
COCc1ccc(C(NC(=O)Cn2ncc3ccccc32)C(=O)Nc2cc(F)c([Si](C)(C)C)cc2F)cc1 (stereo not drawn)	RORγt (Homo sapiens)	%	100

====

# TARGET OR SYSTEM: RORγt (Homo sapiens, UniProt P51449)
# PROTOCOL NOTES: Cofactor recruitment test (Alpha Screen, biotinylated SRC-1 peptide)
# Type: biochemical
# CONDITIONS USED: read-out: signal value inhibitory rate (%) at test compound 1 μM

COMPOUND	inhibition at 1 µM
Cn1ncc2cc(C(NC(=O)[C@@H]3CNC(=O)C3)C(=O)Nc3ccc([Si](C)(C)C)c(F)c3)ccc21 (mixture of isomers) [Example 109]	87.6%
COCc1ccc([C@@H](NC(=O)CCC(F)(F)F)C(=O)Nc2ccc([Si](C)(C)C)c(F)c2)cc1 [Example 94]	91.5%
COCc1ccc([C@@H](NC(=O)[C@@H]2CNC(=O)C2)C(=O)Nc2cc(F)c([Si](C)(C)C)cc2F)cc1 [Example 51]	97.3%
COCc1ccc(C(NC(=O)Cn2cnccc2=O)C(=O)Nc2ccc([Si](C)(C)C)c(F)c2)cc1 (stereo not shown) [Example 36]	98.2%
COCc1ccc([C@@H](NC(=O)Cc2nnc(C)o2)C(=O)Nc2cc(F)c([Si](C)(C)C)cc2F)cc1 [Example 56]	97.7%
COCc1ccc([C@@H](NC(=O)[C@@H]2CNC(=O)C2)C(=O)Nc2ccc([Si](C)(C)C)c(F)c2)cc1 [Example 49]	96.9%
COCc1ccc(C(C(=O)Nc2ccc([Si](C)(C)C)c(F)c2)N(C)C(=O)c2cc(O)no2)cc1 (stereo not shown) [Example 31]	98.3%

====

Below, each entry is listed with its recorded inhibition at 3 µM.
# TARGET OR SYSTEM: UniProt P51449
# Sequence (P51449 1-497 isoform P51449-2): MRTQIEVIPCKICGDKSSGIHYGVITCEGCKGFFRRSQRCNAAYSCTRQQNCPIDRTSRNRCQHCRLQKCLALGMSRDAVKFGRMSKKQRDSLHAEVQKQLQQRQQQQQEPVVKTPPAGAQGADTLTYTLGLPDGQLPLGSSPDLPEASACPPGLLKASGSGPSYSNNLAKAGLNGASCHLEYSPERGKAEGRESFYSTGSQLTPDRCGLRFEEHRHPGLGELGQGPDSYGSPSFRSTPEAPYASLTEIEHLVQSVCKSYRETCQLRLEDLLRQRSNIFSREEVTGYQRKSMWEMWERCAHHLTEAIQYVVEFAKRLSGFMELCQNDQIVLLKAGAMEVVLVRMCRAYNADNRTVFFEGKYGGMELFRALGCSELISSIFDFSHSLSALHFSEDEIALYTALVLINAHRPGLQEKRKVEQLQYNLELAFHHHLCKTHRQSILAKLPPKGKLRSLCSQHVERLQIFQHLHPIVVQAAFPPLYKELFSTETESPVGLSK
# PROTOCOL NOTES: Jurkat reporter test (human IL-17 ROR response element luciferase reporter)
# Type: cell-based
# CONDITIONS USED: test compound 3 μM; Jurkat cells; read-out: luminescence level inhibitory rate (%) at test compound 3 μM
QUANTITY: inhibition at 3 µM (%)

COMPOUND	READING
CC(C)(C)c1ccc(NC(=O)[C@H](NC(=O)C(O)C(F)(F)F)C2CCOCC2)cc1Cl (single isomer, unassigned)	97.5
COCc1ccc([C@@H](NC(=O)Cc2nnc(C)o2)C(=O)Nc2ccc(C(C)(C)C)c(F)c2)cc1	100
COCc1ccc([C@@H](NC(=O)Cn2cnccc2=O)C(=O)Nc2ccc(C(C)(C)C)c(F)c2)cc1	99.4
CC(C)(C)c1ccc(NC(=O)[C@H](NC(=O)C2CNC(=O)O2)C2CCC(F)(F)CC2)cc1F (some centres unmarked)	93.4
COCc1ccc(C(NC(=O)[C@@H]2CNC(=O)C2)C(=O)Nc2ccc(CC(C)(C)C)c(F)c2)cc1 (mixture of isomers)	95.4
COCc1ccc([C@@H](NC(=O)[C@@H]2CNC(=O)C2)C(=O)Nc2ccc(C(C)(C)C)c(F)c2)cc1	99.5
CC(C)(C)c1ccc(NC(=O)[C@H](NC(=O)[C@@H](O)C(F)(F)F)C2CCOCC2)cc1Cl	95.3
COCc1ccc([C@@H](NC(=O)Cc2cc(O)no2)C(=O)Nc2ccc(C(C)(C)C)c(F)c2)cc1	99.8

====

# TARGET OR SYSTEM: RORγt (Homo sapiens)
# Sequence (P51449 1-497 isoform P51449-2): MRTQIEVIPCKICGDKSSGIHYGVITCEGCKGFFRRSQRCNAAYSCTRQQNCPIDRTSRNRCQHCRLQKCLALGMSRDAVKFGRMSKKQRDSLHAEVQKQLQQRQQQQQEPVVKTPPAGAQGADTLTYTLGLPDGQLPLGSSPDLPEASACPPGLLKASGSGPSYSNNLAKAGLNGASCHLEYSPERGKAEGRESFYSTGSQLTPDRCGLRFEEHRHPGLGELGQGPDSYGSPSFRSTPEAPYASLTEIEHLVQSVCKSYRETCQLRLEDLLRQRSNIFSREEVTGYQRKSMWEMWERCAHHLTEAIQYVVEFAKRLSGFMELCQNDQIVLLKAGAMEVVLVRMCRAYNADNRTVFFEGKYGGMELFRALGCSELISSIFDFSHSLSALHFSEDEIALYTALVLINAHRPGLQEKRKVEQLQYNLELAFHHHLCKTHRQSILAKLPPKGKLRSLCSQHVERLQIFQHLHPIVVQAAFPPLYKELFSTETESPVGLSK
# PROTOCOL NOTES: RORγt binding test (TR-FRET, fluorescent-labeled cholesterol)
# CONDITIONS USED: read-out: binding inhibitory rate (%) of fluorescent-labeled cholesterol to RORγt at test compound 1 μM

COMPOUND	inhibition at 1 µM (%)
COCc1ccc([C@@H](NC(=O)N2CC[C@@H](O)C2)C(=O)Nc2ccc([Si](C)(C)C)c(F)c2)cc1 [Example 66]	103
COc1ccc([C@@H](NC(=O)c2cc(O)no2)C(=O)Nc2cc(F)c([Si](C)(C)C)c(F)c2)cc1 [Example 99]	102
CCNC(=O)N[C@@H](C(=O)Nc1ccc([Si](C)(C)C)c(F)c1)c1ccc(COC)cc1 [Example 90]	102
COCc1ccc([C@@H](NC(=O)Cn2ccc(=O)[nH]c2=O)C(=O)Nc2ccc(C(C)(C)C)c(F)c2)cc1 [Example 116]	103
COCc1ccc([C@@H](NC(=O)Cc2cc(O)no2)C(=O)Nc2cc(F)c(C(C)(C)C)c(F)c2)cc1 [Example 114]	101
COCc1ccc([C@@H](NC(=O)[C@H]2CNC(=O)C2)C(=O)Nc2ccc(C(C)(C)C)c(F)c2)cc1 [Example 102]	100
COCc1ccc([C@@H](NC(=O)CC2CC(=O)NC(=O)C2)C(=O)Nc2ccc(C(C)(C)C)c(F)c2)cc1 [Example 117]	103
